Provenance of the data: patent US20100125087A1

biological target: human β-Secretase (Homo sapiens); construct: soluble part of the human β-Secretase (AA 1-AA 460); Fc domain of IgG1 (C); made in house; assay: TR-FRET assay; assay type: biochemical; details: sBACE-Fc, substrate (Europium)CEVNLDAEFK(Qsy7) 100 nM, pH4.5, unit not in table
Sequence (P56817 22-460): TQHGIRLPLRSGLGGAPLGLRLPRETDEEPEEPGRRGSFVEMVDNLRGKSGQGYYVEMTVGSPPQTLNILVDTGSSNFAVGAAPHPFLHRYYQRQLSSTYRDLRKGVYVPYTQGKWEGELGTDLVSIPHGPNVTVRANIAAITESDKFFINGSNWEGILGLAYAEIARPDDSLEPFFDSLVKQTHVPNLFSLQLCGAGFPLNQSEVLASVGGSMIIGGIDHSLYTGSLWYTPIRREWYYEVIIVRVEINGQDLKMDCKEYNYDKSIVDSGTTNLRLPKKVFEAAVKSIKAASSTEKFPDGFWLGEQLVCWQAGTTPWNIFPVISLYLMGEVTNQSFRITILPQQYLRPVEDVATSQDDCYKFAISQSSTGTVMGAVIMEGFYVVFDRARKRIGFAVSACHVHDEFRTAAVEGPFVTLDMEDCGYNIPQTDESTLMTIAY
Where a name gives a salt, the structure may show the parent alone.
measurement_name: IC50 (nM)

NC1=NC(c2cccc(OCCCF)c2)(c2ccnc(OC(F)F)c2)c2cccnc21 (stereo not shown) [Example 23]	2620
NC1=NC(c2cccc(OCC3CCC3)c2)(c2ccnc(C(F)(F)F)c2)c2cccnc21 (stereo not shown) [Example 7]	1200
NC1=NC(c2cccc(OCCC(F)F)c2)(c2ccnc(C(F)(F)F)c2)c2cccnc21 (stereo not shown) [Example 21, trifluoroacetic acid salt]	1150
NC1=NC(c2ccncc2)(c2cccc(OCC3CC3(F)F)c2)c2cccnc21 (stereo not shown) [Example 5]	2300
NC1=NC(c2ccncc2)(c2cccc(OCC3CCC3)c2)c2cccnc21 (stereo not shown) [Example 4]	2700
Cc1cc(C2(c3cccc(OCCCF)c3)N=C(N)c3ncccc32)ccn1 (stereo not shown) [Example 13]	2700
CC(C)COc1cccc(C2(c3ccncc3)N=C(N)c3ncccc32)c1 (stereo not shown) [Example 1]	640
NC1=NC(c2cccc(OCCCF)c2)(c2ccnc(C(F)(F)F)c2)c2cccnc21 (stereo not shown) [Example 6]	1500
NC1=NC(c2ccncc2)(c2cccc(OCC3CCCC3)c2)c2cccnc21 (stereo not shown) [Example 3]	1500
NC1=NC(c2ccncc2)(c2cccc(OCCCF)c2)c2cccnc21 (stereo not shown) [Example 10]	2400
NC1=NC(c2ccncc2)(c2cccc(OC3CCCC3)c2)c2cccnc21 (stereo not shown) [Example 8]	3000
COc1cccc(C2(c3ccncc3)N=C(N)c3ncccc32)c1 (stereo not shown) [Example 9i]	26000
COc1c(C)cc(C2(c3cccc(OCCC(F)F)c3)N=C(N)c3ncccc32)nc1C (stereo not shown) [Example 22, acetic acid salt]	337
